IC50 for assorted compounds
tested system: Fatty acid synthase (Homo sapiens, UniProt P49327)
Sequence (P49327 whole entry): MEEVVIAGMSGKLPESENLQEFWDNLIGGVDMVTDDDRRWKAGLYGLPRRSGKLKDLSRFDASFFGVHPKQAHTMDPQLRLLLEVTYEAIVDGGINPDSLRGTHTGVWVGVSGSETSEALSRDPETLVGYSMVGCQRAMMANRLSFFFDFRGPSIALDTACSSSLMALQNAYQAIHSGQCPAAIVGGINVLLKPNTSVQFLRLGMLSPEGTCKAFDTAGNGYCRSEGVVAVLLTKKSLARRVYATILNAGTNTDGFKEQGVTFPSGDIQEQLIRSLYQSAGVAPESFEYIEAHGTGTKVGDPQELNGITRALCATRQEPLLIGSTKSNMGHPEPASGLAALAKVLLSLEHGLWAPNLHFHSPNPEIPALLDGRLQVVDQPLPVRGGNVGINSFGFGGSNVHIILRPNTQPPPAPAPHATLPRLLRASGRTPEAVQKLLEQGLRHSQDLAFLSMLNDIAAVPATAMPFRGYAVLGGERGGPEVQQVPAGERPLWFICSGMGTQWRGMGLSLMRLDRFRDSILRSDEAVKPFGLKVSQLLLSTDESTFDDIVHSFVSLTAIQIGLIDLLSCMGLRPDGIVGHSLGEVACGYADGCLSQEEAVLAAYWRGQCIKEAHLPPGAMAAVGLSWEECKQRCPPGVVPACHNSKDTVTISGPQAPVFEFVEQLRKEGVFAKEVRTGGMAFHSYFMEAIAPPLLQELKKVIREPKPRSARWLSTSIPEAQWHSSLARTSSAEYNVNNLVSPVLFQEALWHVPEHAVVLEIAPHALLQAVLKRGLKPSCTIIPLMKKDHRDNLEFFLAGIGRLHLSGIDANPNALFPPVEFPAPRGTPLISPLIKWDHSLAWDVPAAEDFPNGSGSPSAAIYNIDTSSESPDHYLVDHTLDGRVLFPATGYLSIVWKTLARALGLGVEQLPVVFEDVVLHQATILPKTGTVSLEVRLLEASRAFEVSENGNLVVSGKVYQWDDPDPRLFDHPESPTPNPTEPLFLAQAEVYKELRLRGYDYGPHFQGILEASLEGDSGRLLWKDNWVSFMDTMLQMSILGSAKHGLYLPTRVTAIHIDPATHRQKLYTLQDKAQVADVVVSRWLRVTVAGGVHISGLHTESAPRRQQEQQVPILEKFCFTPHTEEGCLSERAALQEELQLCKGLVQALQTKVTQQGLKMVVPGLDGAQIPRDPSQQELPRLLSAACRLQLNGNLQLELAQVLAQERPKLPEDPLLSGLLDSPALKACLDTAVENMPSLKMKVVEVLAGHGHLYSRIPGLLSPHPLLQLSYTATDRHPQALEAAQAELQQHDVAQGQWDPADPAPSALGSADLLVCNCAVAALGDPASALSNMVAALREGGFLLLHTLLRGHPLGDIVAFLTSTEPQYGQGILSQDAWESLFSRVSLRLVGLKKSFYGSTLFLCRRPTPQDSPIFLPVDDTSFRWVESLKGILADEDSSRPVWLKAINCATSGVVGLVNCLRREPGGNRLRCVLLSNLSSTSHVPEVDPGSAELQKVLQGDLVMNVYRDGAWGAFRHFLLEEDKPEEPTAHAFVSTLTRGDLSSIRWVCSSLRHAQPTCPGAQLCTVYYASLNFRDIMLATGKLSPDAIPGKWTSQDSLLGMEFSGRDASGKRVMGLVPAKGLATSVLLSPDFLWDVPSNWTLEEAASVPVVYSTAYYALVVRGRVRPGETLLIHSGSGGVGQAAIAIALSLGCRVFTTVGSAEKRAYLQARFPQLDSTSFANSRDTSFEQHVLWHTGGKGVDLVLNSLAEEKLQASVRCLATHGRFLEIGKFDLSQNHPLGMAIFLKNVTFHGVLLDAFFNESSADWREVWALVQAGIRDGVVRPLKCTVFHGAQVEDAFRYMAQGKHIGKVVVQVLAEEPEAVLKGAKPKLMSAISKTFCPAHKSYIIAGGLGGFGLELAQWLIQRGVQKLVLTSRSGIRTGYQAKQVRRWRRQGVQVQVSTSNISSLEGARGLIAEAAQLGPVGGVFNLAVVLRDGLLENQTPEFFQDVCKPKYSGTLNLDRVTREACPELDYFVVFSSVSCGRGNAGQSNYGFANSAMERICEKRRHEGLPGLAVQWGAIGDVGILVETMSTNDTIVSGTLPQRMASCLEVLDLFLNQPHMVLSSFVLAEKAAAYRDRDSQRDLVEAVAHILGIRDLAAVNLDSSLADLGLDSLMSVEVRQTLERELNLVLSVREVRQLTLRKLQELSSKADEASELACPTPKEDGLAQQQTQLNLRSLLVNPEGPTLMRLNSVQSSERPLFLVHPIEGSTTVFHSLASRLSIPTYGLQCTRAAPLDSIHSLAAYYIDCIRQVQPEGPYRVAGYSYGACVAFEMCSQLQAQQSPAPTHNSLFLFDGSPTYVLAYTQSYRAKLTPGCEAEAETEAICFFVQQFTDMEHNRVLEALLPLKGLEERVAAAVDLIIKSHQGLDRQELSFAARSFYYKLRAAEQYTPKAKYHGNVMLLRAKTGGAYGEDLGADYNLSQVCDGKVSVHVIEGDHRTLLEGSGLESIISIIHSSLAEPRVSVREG
test description: inhibition of human FAS-TE enzyme activity – biochemical, endpoint fluorescence intensity, uHTS hits, dose response (AID 624327);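 further: fluorescence from hydrolysis of an O-methyl fluorescein acyl ester substrate by the enzyme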
Type: functional
Activity calls are given as the source filed them.

The cases that follow already have their IC50 on record.
INSERT INTO measurements (compound, experimental_endpoint, result) VALUES
  ('O=C(COC(=O)c1cc([N+](=O)[O-])ccc1N1CCOCC1)Nc1cc(F)ccc1F', 'IC50', '2.25 µM (active)'),
  ('O=C(OCC(=O)N1CCc2ccccc2C1)c1cccc([N+](=O)[O-])c1', 'IC50', '9.14 µM (active)'),
  ('N#Cc1c(-c2ccccc2)c(-c2ccccc2)nn(CC(=O)NNC(=O)Nc2ccc(Cl)c(Cl)c2)c1=O', 'IC50', '7.91 µM (active)'),
  ('O=S(=O)(c1ccccc1)c1nnn2c1nc(NC1CCN(Cc3ccccc3)CC1)c1ccccc12', 'IC50', '1.03 µM (active)'),
  ('Cc1csc(NC(=O)C2CCN(S(=O)(=O)c3ccc4c(c3)oc(=O)n4C)CC2)n1', 'IC50', '8.65 µM (active)'),
  ('Cc1cccc(COC[C@H](CC(C)C)N2CCN(C(=O)c3ccc(C(C)(C)C)cc3)CCC2=O)c1', 'IC50', '7.65 µM (active)');

Incoming: Look up IC50 with Fatty acid synthase (Homo sapiens, UniProt P49327) for this compound: `O=C(NCCOc1ccccc1)c1cc(C(=O)NCCOc2ccccc2)cc([N+](=O)[O-])c1`
Outgoing: 5.6 µM (active)

Incoming: How about this compound: CCN(C(=O)CSc1ncnc2c1cnn2-c1ccccc1)C1CCS(=O)(=O)C1 (stereo unspecified)
Outgoing: 5.88 µM (active)

Incoming: Same question for `COc1ccc(-n2c(SCc3ccc([N+](=O)[O-])cc3)nnc2-c2ccccc2)cc1` please.
Outgoing: 5.24 µM (active)

Incoming: `C[C@@]12C(=O)Nc3ccccc3C(=O)N1[C@H]1c3cc(Br)ccc3OC[C@@H]1[C@@H]2c1ccccc1` ?
Outgoing: 16.2 µM (active)

Incoming: Would you mind doing `O=C(O)c1cc(NN=Nc2ccc(Br)cc2)cc([N+](=O)[O-])c1` as well?
Outgoing: 5.49 µM (active)

###

tested system: Corticotropin-releasing factor receptor 2/Corticotropin-releasing factor-binding protein (Homo sapiens, UniProt P24387+Q13324)
Sequence (Q13324 whole entry): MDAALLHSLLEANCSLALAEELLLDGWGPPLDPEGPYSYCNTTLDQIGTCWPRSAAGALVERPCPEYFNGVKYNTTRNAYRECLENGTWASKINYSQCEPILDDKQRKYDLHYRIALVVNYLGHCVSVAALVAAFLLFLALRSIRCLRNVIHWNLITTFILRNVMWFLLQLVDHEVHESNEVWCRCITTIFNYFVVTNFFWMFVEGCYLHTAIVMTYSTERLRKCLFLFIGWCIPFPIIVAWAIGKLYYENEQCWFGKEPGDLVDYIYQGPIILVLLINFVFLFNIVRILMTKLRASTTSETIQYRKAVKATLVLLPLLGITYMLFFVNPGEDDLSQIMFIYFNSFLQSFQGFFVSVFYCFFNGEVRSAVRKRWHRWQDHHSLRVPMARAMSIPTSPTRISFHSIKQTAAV
Sequence (P24387 whole entry): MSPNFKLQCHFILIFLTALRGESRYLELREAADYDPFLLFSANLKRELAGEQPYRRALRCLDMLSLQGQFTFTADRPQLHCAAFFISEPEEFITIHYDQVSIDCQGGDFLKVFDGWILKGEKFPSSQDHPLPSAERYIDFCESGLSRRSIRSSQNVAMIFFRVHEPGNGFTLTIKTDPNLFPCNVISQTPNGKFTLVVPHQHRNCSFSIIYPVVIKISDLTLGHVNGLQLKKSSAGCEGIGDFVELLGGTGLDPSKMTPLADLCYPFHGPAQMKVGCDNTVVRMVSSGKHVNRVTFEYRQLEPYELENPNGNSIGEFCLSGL
test description: activators of CRF receptor 2 with binding protein – uHTS hits, confirmation (AID 602473)
Type: functional
experimental setup: read-out: EC50_Mean
Calls of active or inactive are those of the source.
experimental endpoint: EC50

Some compounds with known EC50 results, for comparison:
INSERT INTO assay_data (compound, result) VALUES
  ('CSCCC(NC(=O)c1ccco1)C(=O)N1CC=C(c2ccccc2)CC1 (centres undefined)', '6.78 µM (active)'),
  ('COC(=O)c1scc2c(O)cc(C(F)(F)F)nc12', '5.75 µM (active)');

Incoming: Can you look up the measured EC50 of `CS(=O)(=O)Nc1ccccc1C(=O)NCc1ccccc1Cl` for me?
Outgoing: > 53 µM (inactive)

Incoming: Also check `COC(=O)/C=c1/s/c(=C(\C#N)C(=O)NCc2ccco2)n(-c2ccccc2)c1=O`
Outgoing: > 53 µM (inactive)

Incoming: Thanks! And `O=C1CCC(C(=O)Nc2ccccc2N2CCOCC2)=NN1` ?
Outgoing: > 53 µM (inactive)

Incoming: Similarly, `c1ccc2c(c1)OCCOCCOCCOCCOc1ccccc1OCCOCCOCCO2` ?
Outgoing: 15.4 µM (active)

Incoming: // next record `CCOC(=O)N1CCN(C(=O)Cn2cnc3ccccc3c2=O)CC1`
Outgoing: > 53 µM (inactive)

Incoming: `COc1ccc(/C=C/C(=O)Nc2c(C)nn(C)c2C)cc1COc1ccc(Br)cc1` ?
Outgoing: > 53 µM (inactive)
